Record form. Attribute: SH2 binding enrichment. Fill in for each entry.
target: c-Src SH2; test: SH2 binding enrichment of the phosphorylated peptide, bacterial display (enrichment ratio); higher = better substrate or ligand; peptides without Tyr show the background;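 further: peptide library displayed on the E. coli surface as eCPX fusions, selected cells deep-sequenced, score is each peptide's frequency after selection divided by its frequency in the input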

Record SH2 binding enrichment per entry; entries follow.
1. SKNSKYNAEST [PSEN1_Y315]
2. QNTGVYFDLFG [PTPN11_Y62_D61V_YF]
3. VMTVDYSKTVV [SETD2_Y770]

0.489
0.661
0.528

Please look at the items below and tell me SH2 binding enrichment for each one, in order.
1. VGTTAYMAPEA [IRAK4_Y354]
2. LYNQDYPIHSV [GATM_Y227]
3. IRDLKYTIENP [SND1_Y178]
4. NTPNTYLRVNV [ADD2_Y440]
5. HIAKVYRRDNP [HARS1_Y156]

[0.568, 0.481, 0.438, 0.485, 0.747]

Quick request: SH2 binding enrichment for each listed item, please.
1. GINDDYGQLKN [NBN_Y679]
2. RMSQRYGDVLQ [CYP1A2_Y72]
3. AGQEEYSAMRD [HRAS_Y64]
4. CDTKLYTSAPN [DNTTIP2_Y427]
5. RMSQRYRDVLQ [CYP1A2_Y72_G73R]
6. VNCHQYDGLVE [ATP2A2_Y407]

1: 0.494; 2: 0.294; 3: 0.679; 4: 0.387; 5: 0.495; 6: 12.5

Field request: SH2 binding enrichment | item: YARECYSALPQ [SARS2_Y52_G51C]
0.776

----------
target: FGFR3 (UniProt P22607); assay: phosphorylation enrichment, bacterial display (enrichment ratio); higher = better substrate or ligand; peptides without Tyr show the background
Sequence (P22607 whole entry, looked up): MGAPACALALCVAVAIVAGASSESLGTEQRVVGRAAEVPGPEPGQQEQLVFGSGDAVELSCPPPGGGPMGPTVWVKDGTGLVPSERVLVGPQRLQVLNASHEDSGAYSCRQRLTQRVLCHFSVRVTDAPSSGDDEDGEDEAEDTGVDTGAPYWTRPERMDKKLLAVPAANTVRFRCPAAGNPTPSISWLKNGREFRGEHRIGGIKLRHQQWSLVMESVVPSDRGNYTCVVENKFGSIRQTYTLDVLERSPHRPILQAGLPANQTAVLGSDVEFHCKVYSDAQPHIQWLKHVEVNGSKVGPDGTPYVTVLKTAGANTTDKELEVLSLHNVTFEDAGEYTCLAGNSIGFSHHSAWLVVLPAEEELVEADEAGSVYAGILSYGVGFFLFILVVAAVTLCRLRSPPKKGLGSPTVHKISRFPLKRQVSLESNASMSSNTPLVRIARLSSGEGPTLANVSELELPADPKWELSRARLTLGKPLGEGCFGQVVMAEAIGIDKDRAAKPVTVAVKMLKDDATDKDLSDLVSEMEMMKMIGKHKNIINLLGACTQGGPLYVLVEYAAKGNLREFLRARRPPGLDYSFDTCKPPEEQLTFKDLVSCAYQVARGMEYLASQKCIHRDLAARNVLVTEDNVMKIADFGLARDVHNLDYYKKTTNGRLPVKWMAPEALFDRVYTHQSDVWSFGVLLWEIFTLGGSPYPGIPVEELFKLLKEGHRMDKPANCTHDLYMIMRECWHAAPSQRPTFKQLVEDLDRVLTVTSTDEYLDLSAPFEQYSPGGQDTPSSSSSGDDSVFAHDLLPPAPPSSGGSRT
readout: phosphorylation enrichment
Give bare numbers.

[[record]]
seq_text = "EAVKNYTDKRG [PBRM1_Y672]"
assay_system = "FGFR3 (UniProt P22607)"
result_value = 0.459

[[record]]
seq_text = "LNLKDYNLVGG [GNAQ_Y356_E355D]"
assay_system = "FGFR3 (UniProt P22607)"
result_value = 0.565

[[record]]
seq_text = "NPQKSCFIRLF [WAS_Y83_Y83C_YF]"
assay_system = "FGFR3 (UniProt P22607)"
result_value = 0.704


For every record below, what is its phosphorylation enrichment?
1. PVQAAYQNVVA [HBB_Y131_K133N]
2. IFHLSYLHNCE [PDE6B_Y227_YF]
3. ADGLEYPRTGL [MMUT_Y287_S288P]
4. DFPIGYPSYLA [TBCK_Y153]
5. EELLRYAIVTP [POC5_Y37_H36R]
6. EFQLPYFNTVP [BMPR1A_Y457_M460T_YF]
7. DTKDDYSALSV [IL17RB_Y457_N458S]

[0.692, 0.856, 0.59, 0.55, 0.615, 0.541, 0.828]

----------
target: Fes (UniProt P07332); test: phosphorylation enrichment, bacterial display (enrichment ratio); higher = better substrate or ligand; peptides without Tyr show the background
Sequence (P07332 whole entry, looked up): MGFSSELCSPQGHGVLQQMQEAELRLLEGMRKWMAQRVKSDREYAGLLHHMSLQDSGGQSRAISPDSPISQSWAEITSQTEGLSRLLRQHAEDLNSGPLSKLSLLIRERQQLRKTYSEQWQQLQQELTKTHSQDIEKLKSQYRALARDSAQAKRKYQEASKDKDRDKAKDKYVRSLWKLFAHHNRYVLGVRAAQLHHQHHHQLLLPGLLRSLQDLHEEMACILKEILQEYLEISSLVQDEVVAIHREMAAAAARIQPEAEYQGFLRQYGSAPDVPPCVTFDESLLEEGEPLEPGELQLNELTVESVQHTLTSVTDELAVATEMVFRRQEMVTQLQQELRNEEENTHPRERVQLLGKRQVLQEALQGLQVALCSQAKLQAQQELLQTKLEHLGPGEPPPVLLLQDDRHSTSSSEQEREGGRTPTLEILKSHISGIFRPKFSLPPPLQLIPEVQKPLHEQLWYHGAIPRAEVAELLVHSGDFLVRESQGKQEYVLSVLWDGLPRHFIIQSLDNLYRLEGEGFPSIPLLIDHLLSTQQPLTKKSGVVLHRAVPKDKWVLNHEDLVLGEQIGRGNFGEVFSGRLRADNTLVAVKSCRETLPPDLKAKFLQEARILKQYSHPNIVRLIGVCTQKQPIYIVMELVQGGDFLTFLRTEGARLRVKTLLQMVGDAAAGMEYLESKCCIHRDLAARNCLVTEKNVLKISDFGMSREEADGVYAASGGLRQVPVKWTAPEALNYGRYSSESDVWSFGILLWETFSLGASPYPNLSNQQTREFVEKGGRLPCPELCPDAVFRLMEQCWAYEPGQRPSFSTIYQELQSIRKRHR
readout: phosphorylation enrichment
Give bare numbers.

[[record]]
seq_text = "ASTDFYKRGDF [PDHA1_Y243_YF]"
readout = "phosphorylation enrichment"
result_value = 0.795

[[record]]
seq_text = "KGPGEYVNIEF [IRS1_Y896_S892G]"
readout = "phosphorylation enrichment"
result_value = 0.79


// returns reported phosphorylation enrichment for input PPTFRYERGSR [INPPL1_Y663_YF]
0.822

Values compiled from the supplement of paper PMC10065799.
